Test system: HT29 colon
Experiment: NCI tumour cell line growth inhibition, 48 h
Parameter GI50: see the listing below.

Below, 2 compounds whose answers are already recorded.
COc1ccc(C2=CC(c3ccc(Oc4ccnc5cc(Cl)ccc45)c(OC)c3)c3c(nc(OC)[nH]c3=O)N2)cc1 (stereo unspecified); 4.24 µM
COc1ccc(-c2nn(-c3ccc(NC(=O)Nc4ccc(Cl)c(Cl)c4)cc3)cc2-c2ccncc2)cc1Cl; 2.55 µM

Note to self: GI50 recorded for `COc1ccc2c(c1)CC[C@@H]1[C@@H]2CC[C@]2(C)c3[nH]ncc3C[C@@H]12` was 15 µM

response.value for `Cc1c2cnccc2c(C)c2c1c1cc(C(=O)O)ccc1n2C` (field: GI50) = 0.856 µM

Record summary for `O=C(Nc1ccc(Cl)cc1F)c1cc(F)ccc1O` : reported GI50 = 3.24 µM
